Reference for the values: patent US8148373B2

testedTarget: human muscarinic acetylcholine M3 receptor (M3-ACh) (Homo sapiens, UniProt P20309)
Construct: expressed in transfected cells; host or cells: CHO-K1 (Chinese Hamster Ovary) cell membranes
Sequence (P20309 whole entry): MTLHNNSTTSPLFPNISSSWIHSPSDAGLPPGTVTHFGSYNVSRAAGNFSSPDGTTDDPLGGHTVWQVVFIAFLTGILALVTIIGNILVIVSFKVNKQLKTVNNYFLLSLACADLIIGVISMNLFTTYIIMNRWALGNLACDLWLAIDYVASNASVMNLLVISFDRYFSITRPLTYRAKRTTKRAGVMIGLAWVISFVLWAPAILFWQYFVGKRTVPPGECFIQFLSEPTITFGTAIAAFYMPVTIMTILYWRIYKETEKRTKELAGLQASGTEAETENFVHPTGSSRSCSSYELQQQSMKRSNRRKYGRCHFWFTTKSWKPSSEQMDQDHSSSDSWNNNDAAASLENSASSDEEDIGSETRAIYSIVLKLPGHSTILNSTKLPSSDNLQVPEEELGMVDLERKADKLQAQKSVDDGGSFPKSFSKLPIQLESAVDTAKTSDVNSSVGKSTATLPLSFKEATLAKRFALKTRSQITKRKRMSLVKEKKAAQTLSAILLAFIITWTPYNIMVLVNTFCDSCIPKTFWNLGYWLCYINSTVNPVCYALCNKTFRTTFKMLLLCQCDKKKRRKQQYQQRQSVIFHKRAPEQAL
test: Muscarinic 3 Receptor Binding Assay ([3H]NMS competition, SPA)
studyConditions: [3H]NMS 0.1 nM, CHO-K1 cell membranes, 16 hours at room temperature; read-out: M3 pIC50 (converted)
Where a name gives a salt, the structure may show the parent alone.
resultType: IC50 (nM)

Please review the entries below; each comes with its answer.
CCC(CC)c1nc(C(=O)N2CCOC3(CCN(Cc4cccc(CCNC[C@H](O)c5ccc(O)c6[nH]c(=O)sc56)c4F)CC3)C2)cs1 [Example 71, ditrifluoroacetate] : 5.01
CC(C)c1nc(C(=O)N2CCOC3(CCN(CCCCCC(C)(C)CCCNC[C@H](O)c4ccc(O)c5[nH]c(=O)sc45)CC3)C2)cs1 [Example 285, formate] : 3.98
CC(C)c1nc(C(=O)N2CCOC3(CCN(CCCCCCCCCNC[C@H](O)c4ccc(O)c5[nH]c(=O)sc45)CC3)C2)cs1 [Example 109, formate] : 0.2

(I) CC(CCCCCCCCN1CCC2(CC1)CN(C(=O)c1csc(C(C)C)n1)CCO2)NC[C@H](O)c1ccc(O)c2[nH]c(=O)sc12 (stereo partly shown) [Example 280, formate]
(II) Cc1nc(C(=O)N2CCOC3(CCN(CCCOc4cccc(CNC[C@H](O)c5ccc(O)c6[nH]c(=O)ccc56)c4)CC3)C2)cs1 [Example 95, ditrifluoroacetate]
(III) CC(C)c1nc(C(=O)N2CCOC3(CCN(Cc4cc(CCNC[C@H](O)c5ccc(O)c6[nH]c(=O)sc56)ccc4F)CC3)C2)cs1 [Example 40, ditrifluoroacetate]
(IV) Cc1cc(C(=O)N2CCOC3(CCN(CCCCCCCCCNC[C@H](O)c4ccc(O)c5[nH]c(=O)sc45)CC3)C2)cs1 [Example 105, formate]
Arrange these compounds by their IC50, starting with the largest number. Reply format: the labels, ordered as requested.
II, I, III, IV
(II: 1.58 nM, I: 0.794 nM, III: 0.398 nM, IV: 0.126 nM)

(1) CC(C)c1nc(C(=O)N2CCOC3(CCN(Cc4cccc(CCNC[C@H](O)c5ccc(O)c6[nH]c(=O)sc56)c4)CC3)C2)cs1 [Example 22]
(2) O=C(c1csc(C2CC2)n1)N1CCOC2(CCN(CCCCCCCCCNC[C@H](O)c3ccc(O)c4[nH]c(=O)sc34)CC2)C1 [Example 218]
IC50 comparison. Which is larger, 1 or 2 ? Label of pick, please.
2
(2: 0.398 nM, 1: 0.126 nM)

(1) Cc1nc(C(=O)N2CCOC3(CCN(CCCOc4ccc(CNC[C@H](O)c5ccc(O)c6[nH]c(=O)sc56)cc4)CC3)C2)cs1 [Example 8, ditrifluoroacetate]
(2) Cc1ccc(C(=O)N2CCOC3(CN(Cc4cccc(CCNC[C@H](O)c5ccc(O)c6[nH]c(=O)sc56)c4)C3)C2)s1 [Example 33, ditrifluoroacetate]
IC50 comparison. Which is larger, 1 or 2 ? Label of pick, please.
2
(2: 12.6 nM, 1: 3.98 nM)

* * *

testedTarget: Adrenergic β2 (H292 cells) (Homo sapiens, UniProt P07550)
Construct: endogenous in cells; host or cells: H292 cells
Sequence (P07550 whole entry): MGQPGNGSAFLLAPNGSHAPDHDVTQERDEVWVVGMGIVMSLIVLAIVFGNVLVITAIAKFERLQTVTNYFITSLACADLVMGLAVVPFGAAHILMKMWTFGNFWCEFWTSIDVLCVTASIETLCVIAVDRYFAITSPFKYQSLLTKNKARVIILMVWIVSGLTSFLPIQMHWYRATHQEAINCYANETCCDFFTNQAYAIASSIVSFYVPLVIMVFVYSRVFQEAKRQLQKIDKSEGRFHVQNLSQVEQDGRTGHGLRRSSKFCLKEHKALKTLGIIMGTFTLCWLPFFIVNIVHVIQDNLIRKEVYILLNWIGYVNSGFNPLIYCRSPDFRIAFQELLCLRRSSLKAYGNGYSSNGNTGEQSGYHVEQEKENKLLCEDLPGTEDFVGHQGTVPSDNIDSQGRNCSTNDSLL
test: Adrenergic β2 Mediated cAMP Production, single concentration 1 μM
Assay type: cell-based
studyConditions: NCI-H292, 1 μM compound, percentage of the maximum response generated by 1E-07M formoterol, read-out: β2 (% effect at 1 μM)
resultType: activation at 1 µM (%)

Please review the entries below; each comes with its answer.
CC(C)(C(=O)N1CCOC2(CCN(Cc3cc(F)cc(CCNC[C@H](O)c4ccc(O)c5[nH]c(=O)sc45)c3)CC2)C1)c1ccccc1 [Example 176] : 87
Cc1cc(C(=O)N2CCOC3(CCN(CCCCCCCCCNC[C@H](O)c4ccc(O)c5[nH]c(=O)sc45)CC3)C2)sc1C [Example 222] : 87
O=C(Cn1c(C(F)(F)F)nc2ccccc21)N1CCOC2(CCN(Cc3cc(F)cc(CCNC[C@H](O)c4ccc(O)c5[nH]c(=O)sc45)c3)CC2)C1 [Example 177] : 78
O=C(c1ccsc1Cl)N1CCOC2(CCN(CCOc3ccc(CNC[C@H](O)c4ccc(O)c5[nH]c(=O)sc45)cc3)CC2)C1 [Example 253] : 73

(1) O=C(c1ccccc1)N1CCOC2(CCN(CCOc3ccc(CNC[C@H](O)c4ccc(O)c5[nH]c(=O)sc45)cc3)CC2)C1 [Example 223]
(2) CCCc1nc(C(=O)N2CCOC3(CCN(CCOc4ccc(CNC[C@H](O)c5ccc(O)c6[nH]c(=O)sc56)cc4)CC3)C2)cs1 [Example 260]
activation at 1 µM comparison. Which is larger, 1 or 2 ? Label of pick, please.
1
(1: 87%, 2: 56%)

* * *

testedTarget: Adrenergic β2 (H292 cells) (Homo sapiens)
Construct: endogenous in cells; host or cells: H292 cells
test: Assay for Adrenergic β2 Mediated cAMP Production (concentration response, AlphaScreen cAMP detection)
Type: cell-based
studyConditions: fraction relative to the maximum activity determined for formoterol
Structures can show the parent of a compound that is named as a salt.
resultType: β2 Intrinsic activity

Cc1nc(CC(=O)N2CCOC3(CCN(CCCCCCCCCNC[C@H](O)c4ccc(O)c5[nH]c(=O)sc45)CC3)C2)cs1 [Example 210] : 0.8
Cc1nc(C(=O)N2CCOC3(CCN(CCOc4cc(C)c(CNC[C@H](O)c5ccc(O)c6[nH]c(=O)sc56)cc4C)CC3)C2)cs1 [Example 18, ditrifluoroacetate] : 1
CC(C)c1nc(C(=O)N2CCOC3(CCN(CCC[S+]([O-])CCCCNC[C@H](O)c4ccc(O)c5[nH]c(=O)sc45)CC3)C2)cs1 (stereo partly drawn) [Example 282, formate] : 1
CC(C)c1nc(C(=O)N2CCOC3(CCN(Cc4csc(CCNC[C@H](O)c5ccc(O)c6[nH]c(=O)sc56)c4)CC3)C2)cs1 [Example 278, ditrifluoroacetate] : 1.0
O=C(c1csc(C2CCCC2)n1)N1CCOC2(CCN(CCCCCCCCCNC[C@H](O)c3ccc(O)c4[nH]c(=O)sc34)CC2)C1 [Example 221] : 0.9
O=C(c1cc2ccccc2s1)N1CCOC2(CCN(Cc3cccc(CCNC[C@H](O)c4ccc(O)c5[nH]c(=O)sc45)c3F)CC2)C1 [Example 79, ditrifluoroacetate] : 0.9

* * *

testedTarget: Adrenergic β2 (H292 cells) (Homo sapiens)
Construct: endogenous in cells; host or cells: H292 cells
test: Assay for Adrenergic β2 Mediated cAMP Production (concentration response, AlphaScreen cAMP detection)
Format: cell-based
studyConditions: cAMP production, 60 minutes at room temperature, 300 μM rolipram, read-out: β2 pEC50 (converted)
resultType: EC50 (µM)

Please review the entries below; each comes with its answer.
Cc1nc(C(=O)N2CCOC3(CCN(Cc4cccc(CCNC[C@H](O)c5ccc(O)c6[nH]c(=O)sc56)c4)CC3)C2)cs1 [Example 6, ditrifluoroacetate] : 0.00398
CC(C)c1nc(C(=O)N2CCOC3(CCN(CCOc4ccc(CCNC[C@H](O)c5ccc(O)c6[nH]c(=O)ccc56)c(F)c4F)CC3)C2)cs1 [Example 77, ditrifluoroacetate] : 0.0794

(a) CC(C)c1nc(C(=O)N2CCOC3(CCN(Cc4cccc(C(F)CNC[C@H](O)c5ccc(O)c6[nH]c(=O)sc56)c4)CC3)C2)cs1 (some centres unmarked) [Example 39, ditrifluoroacetate]
(b) CCC(CC)c1nc(C(=O)N2CCOC3(CCN(Cc4cccc(CCNC[C@H](O)c5ccc(O)c6[nH]c(=O)sc56)c4)CC3)C2)cs1 [Example 265, ditrifluoroacetate]
(c) CCc1cc(C(=O)N2CCOC3(CCN(Cc4cccc(CCNC[C@H](O)c5ccc(O)c6[nH]c(=O)sc56)c4F)CC3)C2)cs1 [Example 91, ditrifluoroacetate]
Sort (3 compounds) by EC50: min first. Reply format: the labels, ordered as requested.
c, b, a
(c: 0.00126 µM, b: 0.0126 µM, a: 0.1 µM)

* * *

testedTarget: human muscarinic acetylcholine M3 receptor (M3-ACh) (Homo sapiens, UniProt P20309)
Construct: expressed in transfected cells; host or cells: CHO-K1 (Chinese Hamster Ovary) cell membranes
test: Muscarinic 3 Receptor Binding Assay ([3H]NMS competition, SPA)
studyConditions: [3H]NMS 0.1 nM, CHO-K1 cell membranes, 16 hours at room temperature; read-out: M3 pIC50 (converted)
resultType: IC50 (nM)

Please review the entries below; each comes with its answer.
CC(C)c1csc(C(=O)N2CCOC3(CCN(Cc4cccc(CCNC[C@H](O)c5ccc(O)c6[nH]c(=O)sc56)c4F)CC3)C2)c1 [Example 74, ditrifluoroacetate] : 20
Cc1nc(C(=O)N2CCOC3(CCN(Cc4ccc(CCNC[C@H](O)c5ccc(O)c6[nH]c(=O)ccc56)s4)CC3)C2)cs1 [Example 14, ditrifluoroacetate] : 6.31
COC(=O)c1ccc(C(=O)N2CCOC3(CCN(Cc4cccc(CCNC[C@H](O)c5ccc(O)c6[nH]c(=O)ccc56)c4)CC3)C2)s1 [Example 31, ditrifluoroacetate] : 63.1

(I) Cc1sc(C(C)C)nc1C(=O)N1CCOC2(CCN(Cc3cccc(CCNC[C@H](O)c4ccc(O)c5[nH]c(=O)sc45)c3F)CC2)C1 [Example 69, ditrifluoroacetate]
(II) Cc1ccc(C(=O)N2CCOC3(CCN(Cc4cccc(CCNC[C@H](O)c5ccc(O)c6[nH]c(=O)ccc56)c4)CC3)C2)s1
(III) CC(C)c1nc(C(=O)N2CCOC3(CCN(Cc4cccc(CCNC[C@H](O)c5ccc(O)c6[nH]c(=O)ccc56)c4Cl)CC3)C2)cs1 [Example 81, ditrifluoroacetate]
Arrange these compounds by their IC50, starting with the largest number. Reply format: the labels, ordered as requested.
I, III, II
(I: 20 nM, III: 6.31 nM, II: 2 nM)

(1) Cc1nc(C(=O)N2CCOC3(CCN(Cc4cccc(CCNC[C@H](O)c5ccc(O)c6[nH]c(=O)sc56)c4)CC3)CC2)cs1 [Example 89, ditrifluoroacetate]
(2) O=C(c1csc(C2CCCC2)n1)N1CCOC2(CCN(CCCCCCCCCNC[C@H](O)c3ccc(O)c4[nH]c(=O)sc34)CC2)C1
IC50 comparison. Which is larger, 1 or 2 ? Label of pick, please.
1
